Reference for the values: the supplement of paper PMC4121296

Tested on: Danio rerio embryo (fli1:egfp)
Test: heart rate at 72 hpf (beats per minute); higher = faster heart rate
Conditions: 1.56 µM; exposure: 5-72 hpf
Assay Endpoint: heart rate at 72 hpf
Give the figure only, with no unit attached.

Molecule: Cc1nn(-c2cc(NS(C)(=O)=O)c(Cl)cc2Cl)c(=O)n1C(F)F [Sulfentrazone]
Experimental System: Danio rerio embryo (fli1:egfp)
heart rate at 72 hpf: 163
//
Molecule: O=C(O)c1cc(Oc2ccc(C(F)(F)F)cc2Cl)ccc1[N+](=O)[O-] [Acifluorfen]
Experimental System: Danio rerio embryo (fli1:egfp)
heart rate at 72 hpf: 164
//
Molecule: CCOC(=O)COc1cc(-n2ncc(C(F)(F)F)c(C)c2=O)c(F)cc1Cl [Flufenpyr-ethyl]
Experimental System: Danio rerio embryo (fli1:egfp)
heart rate at 72 hpf: 182
//
Molecule: CO/N=C(/C1=NOCCO1)c1ccccc1Oc1ncnc(Oc2ccccc2Cl)c1F [Fluoxastrobin]
Experimental System: Danio rerio embryo (fli1:egfp)
heart rate at 72 hpf: 177
//
Molecule: CCN(Cc1c(F)cccc1Cl)c1c([N+](=O)[O-])cc(C(F)(F)F)cc1[N+](=O)[O-] [Flumetralin]
Experimental System: Danio rerio embryo (fli1:egfp)
heart rate at 72 hpf: 182

Could you now look at the following molecule, please?
Tell us which heart rate at 72 hpf value is on record for CC1(C)C(C=C(Cl)Cl)C1C(=O)OC(C#N)c1ccc(F)c(Oc2ccccc2)c1 (stereo unspecified) [Cyfluthrin]
198

* * *

Test system: Danio rerio embryo (fli1:egfp)
Test: pericardial area at 72 hpf (image area units (not stated)); higher = larger pericardial area (edema)
Settings: 0.098 µM; exposure: 5-72 hpf
Assay Endpoint: pericardial area at 72 hpf
Reply briefly: the number, and no unit.

These recorded examples may help you get a feel for the data.
Compound: O=C(O)c1cc(Oc2ccc(C(F)(F)F)cc2Cl)ccc1[N+](=O)[O-]
Experimental System: Danio rerio embryo (fli1:egfp)
pericardial area at 72 hpf: 17600

Compound: CCOC(=O)COc1cc(-c2nn(C)c(OC(F)F)c2Cl)c(F)cc1Cl
Experimental System: Danio rerio embryo (fli1:egfp)
pericardial area at 72 hpf: 15400

Compound: CO/N=C(/C1=NOCCO1)c1ccccc1Oc1ncnc(Oc2ccccc2Cl)c1F
Experimental System: Danio rerio embryo (fli1:egfp)
pericardial area at 72 hpf: 14900

Compound: CCc1nn(C)c(C(=O)NCc2ccc(C(C)(C)C)cc2)c1Cl
Experimental System: Danio rerio embryo (fli1:egfp)
pericardial area at 72 hpf: 13600

Compound: CC(C)[C@H](C(=O)O[C@H](C#N)c1cccc(Oc2ccccc2)c1)c1ccc(Cl)cc1 [Esfenvalerate]
Experimental System: Danio rerio embryo (fli1:egfp)
pericardial area at 72 hpf: 16600

Recall the reported pericardial area at 72 hpf of CCCCCOC(=O)COc1cc(N2C(=O)C3=C(CCCC3)C2=O)c(F)cc1Cl when tested on Danio rerio embryo (fli1:egfp).
15200

Answer briefly: pericardial area at 72 hpf recorded on Danio rerio embryo (fli1:egfp) for C=CCOC(=O)C(C)(C)OC(=O)c1cc(-n2c(=O)cc(C(F)(F)F)n(C)c2=O)ccc1Cl
14800

Name the value of pericardial area at 72 hpf reported for CCOC(=O)C(Cl)Cc1cc(-n2nc(C)n(C(F)F)c2=O)c(F)cc1Cl (centres undefined) when tested on Danio rerio embryo (fli1:egfp).
15600

For Danio rerio embryo (fli1:egfp), give the measured pericardial area at 72 hpf of the entry CCOC(=O)COc1cc(-n2ncc(C(F)(F)F)c(C)c2=O)c(F)cc1Cl
13000
